system: CEM cells HIV-1 protection, formazan growth assay; assay: NCI AIDS Antiviral Assay; details: measured here: growth of uninfected CEM cells
pIC50: −log10 of the molar value.
Let's look at some compounds and their measured pIC50.

compound | cmp | pIC50
C/C(=N\NC(=S)N(C)C)c1ncc[nH]1 | = | 5.37
CC1CCCc2c1c1ccc3c(O)cccc3c1oc2=O (stereo unspecified) | < | 5.15
COC(=O)C12CC(c3ccccc31)C1C(=O)OC(=O)C12 (stereo unspecified) | < | 3.88
CCCCCCCCCCCCCCOCCS(=O)(=O)O | = | 4.28
CCOC(=O)c1nc2ccccc2nc1NCc1ccc(OC)c(OC)c1 | < | 3.70
CC(C)(C)c1ccc(-c2nc3ccccc3c(=O)o2)cc1 | = | 4.41
CC1(C)c2ccccc2C(=O)C1(Br)Cc1ccccc1 (stereo unspecified) | = | 5.02
CCN(C(=S)N[C@H](C(=O)N[C@@H](C)C(=O)OC)C(C)C)c1ccccc1 | = | 4.53
O=C(NCO)NCOCn1c(=O)n(CO)c(=O)n(CO)c1=O | = | 4.15
CCN(CC)CCN1C(=O)C(=O)N(c2cccc3ccccc23)C1=O | < | 3.70
O=C1C(=Cc2ccc(Cl)c(Cl)c2)C([O-])=C([P+](c2ccccc2)(c2ccccc2)c2ccccc2)C([O-])=C1[P+](c1ccccc1)(c1ccccc1)c1ccccc1 | = | 5.91

---

Attribute: IC50
system: CEM cells HIV-1 protection, formazan growth assay; assay: NCI AIDS Antiviral Assay; conditions: measured here: growth of uninfected CEM cells

molecule | subjectOfTest | cmp | IC50, µM
COc1cc(-c2nnc3n2NC=C(C(=O)O)S3)cc(OC)c1OC | CEM cells HIV-1 protection, formazan growth assay | > | 257
CC(C)CCCC(C)[C@H]1CCC2C3CC[C@H]4C[C@@H](CCCP(=O)(c5ccccc5)c5ccccc5)CC[C@]4(C)C3CC[C@@]21C (some centres not stated) | CEM cells HIV-1 protection, formazan growth assay | > | 50.1
CCOC(=O)N1CCN(Cc2cc(=O)n3ccc(C)cc3n2)CC1 | CEM cells HIV-1 protection, formazan growth assay | > | 200
C[C@@H](c1ccccc1)N1C[C@@H](c2ccc3c(c2)OCO3)[C@@H]2C(=O)CCC[C@@H]21 | CEM cells HIV-1 protection, formazan growth assay | = | 112
Cc1cc2c(O)c(c1)COCc1cc(C)cc(c1O)COCc1cc(C)cc(c1O)COC2 | CEM cells HIV-1 protection, formazan growth assay | = | 138
CCCOC(=O)C(C)(C)C(OP(=O)(OCCC)OCCC)=C(C)C | CEM cells HIV-1 protection, formazan growth assay | = | 105
CCCCc1c2c([n+]([O-])c3c1CCCC3)CCCC2 | CEM cells HIV-1 protection, formazan growth assay | = | 22.4
CC1=NNC(=O)C1C1C=C(c2c[nH]c3ccccc23)OC1=O (configuration not stated) | CEM cells HIV-1 protection, formazan growth assay | = | 102
O=C(Nc1ccccc1[N+](=O)[O-])/C(=N/Nc1cccc(Cl)c1)c1c(O)c2ccccc2oc1=O | CEM cells HIV-1 protection, formazan growth assay | > | 53.7
CC(C(=O)Oc1ccc2ccccc2c1-c1c(O)ccc2ccccc12)c1ccccc1 (configuration not stated) | CEM cells HIV-1 protection, formazan growth assay | > | 2.51
c1cnc2c(c1)Oc1nc3ccccc3nc1S2 | CEM cells HIV-1 protection, formazan growth assay | = | 14.5
CC(O)(c1ccc(OCCC[N+](C)(C)C)cc1)C(C)(O)c1ccc(OCCC[N+](C)(C)C)cc1 (configuration not stated) | CEM cells HIV-1 protection, formazan growth assay | = | 794
CC(C)=CCC[C@@H](C)C1=CC(=O)C(C)=C(O)C1=O | CEM cells HIV-1 protection, formazan growth assay | = | 1.02
O=C1CCC2(c3ccccc3)Nc3ccccc3N12 (configuration not stated) | CEM cells HIV-1 protection, formazan growth assay | = | 126
COc1ccc(C=C(C(C)=O)C(C)=O)cc1 | CEM cells HIV-1 protection, formazan growth assay | = | 58.9
CC(C)(C)C1CCC(=O)C(C(O)CC2CC(=O)N(c3ccccc3)C(=O)C2)C1 (configuration not stated) | CEM cells HIV-1 protection, formazan growth assay | > | 200
CN(/N=C(\C(=O)O)c1ccccc1)C1=NCCCN1 | CEM cells HIV-1 protection, formazan growth assay | > | 200
Cc1ccc(S(=O)(=O)N/N=C2/C3C(CC2(C)C)C2(C)CCCC3(C)C2O)cc1 (configuration not stated) | CEM cells HIV-1 protection, formazan growth assay | > | 200
CC(C)(CO)NCC(O)CS(=O)(=O)O (configuration not stated) | CEM cells HIV-1 protection, formazan growth assay | > | 200
COc1ccc(C2=NNc3n[nH]c(=S)n3N2)cc1OC | CEM cells HIV-1 protection, formazan growth assay | > | 64.6
O=C(Nc1ccc(/C=C/c2ccc(NC(=O)c3ccc(O)cc3O)cc2S(=O)(=O)O)c(S(=O)(=O)O)c1)c1ccc(O)cc1O | CEM cells HIV-1 protection, formazan growth assay | = | 126
CCN(CC)C1CCC(C2c3cc4c(cc3OC(N3CCOCC3)C2C)OCO4)CC1 (configuration not stated) | CEM cells HIV-1 protection, formazan growth assay | = | 5.89
Nc1nc(Cl)cc(NCC2(CO)CC(OCc3ccccc3)C2)n1 (configuration not stated) | CEM cells HIV-1 protection, formazan growth assay | = | 6.03
CC1(C)Cc2c(oc3ncnc(N)c23)CS1 | CEM cells HIV-1 protection, formazan growth assay | > | 288
CC(=O)/C=C/c1ccc(C)cc1 | CEM cells HIV-1 protection, formazan growth assay | > | 63.1
CCCCN1C(=O)C(NC(C)=O)C1COC(C)(C)C (configuration not stated) | CEM cells HIV-1 protection, formazan growth assay | > | 479
O=C1c2ccccc2C(=O)c2sc(Nc3ccc(Cl)cc3)nc21 | CEM cells HIV-1 protection, formazan growth assay | = | 4.68
CCC[CH2][Sn]([CH2]CCC)([O]C(=O)c1cc(F)ccc1F)[O]C(=O)c1cc(F)ccc1F | CEM cells HIV-1 protection, formazan growth assay | = | 1
Cc1ccc(F)cc1NC(=O)O/N=C(\Cl)C(C)C | CEM cells HIV-1 protection, formazan growth assay | = | 3.8
NC(=O)c1cccn1Cc1ccccc1SSc1ccccc1Cn1cccc1C(N)=O | CEM cells HIV-1 protection, formazan growth assay | = | 7.08
Brc1cccc[n+]1Cc1ccccc1C[n+]1ccccc1Br | CEM cells HIV-1 protection, formazan growth assay | > | 200
O=C1c2ccccc2C(=O)N1OCCCCON1C(=O)c2ccccc2C1=O | CEM cells HIV-1 protection, formazan growth assay | > | 200
Cc1cc(NS(=O)(=O)c2ccc(N=Nc3c(Nc4ccccc4)nn(-c4ccc(S(=O)(=O)Nc5ccncn5)cc4)c3C)cc2)no1 | CEM cells HIV-1 protection, formazan growth assay | > | 200
COc1ccc(/C=C(\Cl)c2ccc(OC)c(OC)c2)cc1OC | CEM cells HIV-1 protection, formazan growth assay | > | 200
CC1=CC(=O)/C(=C/N2C(=O)CNC2=S)C(=O)O1 | CEM cells HIV-1 protection, formazan growth assay | > | 200
COc1ccc(OC)c(NC2=NCCO2)c1 | CEM cells HIV-1 protection, formazan growth assay | = | 107
Cc1c(NC(=O)CCCl)c(=O)oc2c(C)c3occc(=O)c3cc12 | CEM cells HIV-1 protection, formazan growth assay | = | 1.48
OCC(O)C1OCOC2COCOC21 (configuration not stated) | CEM cells HIV-1 protection, formazan growth assay | > | 200
Cc1cc(NS(=O)(=O)c2ccc(NC(=O)c3cccc4c(Nc5ccc(S(=O)(=O)Nc6cc(C)on6)cc5)c5ccccc5nc34)cc2)no1 | CEM cells HIV-1 protection, formazan growth assay | > | 36.3
Nc1ccc(S2(c3ccc(N)cc3)C=C(c3ccccc3)C(c3ccccc3)=C2)cc1 | CEM cells HIV-1 protection, formazan growth assay | > | 200
COC1=C(C2=NC(C)(C)CO2)c2ccccc2C(C/C=C/[Si](C)(C)C)C1 (configuration not stated) | CEM cells HIV-1 protection, formazan growth assay | > | 26.9
CC(=O)OCC1OC(n2c(=S)n(-c3ccccc3)c(=O)c3cc(Br)cc(Br)c32)C(OC(C)=O)C(OC(C)=O)C1OC(C)=O (configuration not stated) | CEM cells HIV-1 protection, formazan growth assay | > | 18.2

---

system: CEM cells HIV-1 protection, formazan growth assay; assay: NCI AIDS Antiviral Assay
pEC50: −log10 of the molar value.
Reported pEC50 values for the following compounds.

compound | pEC50
CCSC(=O)NNc1nc2ccccc2s1 | < 3.70
CN(C)C=Nc1c2ccccc2nc2ccccc12 | < 3.70
COC(=O)[C@]1(C)CCC[C@]2(C)c3ccc(C(C)C)cc3C(=O)[C@@H](Br)[C@@H]12 | < 3.70
C=C[Si](C)(C)COC(=O)/C(C#N)=C/C=C/c1ccccc1 | < 5.04
O=C(/C=C/c1ccccc1)CCN1CCN(CCC(=O)/C=C/c2ccccc2)CC1 | < 3.70
CCCCCCCCCN1CCC(=O)C(C(=O)OC)C1 (stereo unspecified) | < 3.70
NC(Cc1ccc(OCc2ccccc2)cc1)C(=O)NC(Cc1ccccc1)C(=O)Oc1c(Cl)c(Cl)c(Cl)c(Cl)c1Cl (stereo unspecified) | < 3.70
NC(=O)c1ccc([Se][Se]c2ccc(C(N)=O)cc2)cc1 | < 4.88
Cc1cc(=O)oc2cc(N(C)C)ccc12 | < 4.17
CCCCCCCCCCCCC1C(=O)NCCNCCCNCCNC1=O | < 3.70
O=C(NNC(=S)S)c1ccncc1 | < 3.70
